Examples of molecules with documented relative viability follow.
test system: NCI-H441; test: relative viability (nuclei count vs DMSO), 5 days (fraction); higher = more cells survive; settings: first compound 0.08 µM
Returns: the value as a bare number; no unit string appended.

Example molecules with recorded relative viability:
>>> val("Oc1nc(-c2ccc(C(F)(F)F)cc2)nc2c1CSCC2 [XAV939] + CC1(C)CCC(c2ccc(Cl)cc2)=C(CN2CCN(c3ccc(C(=O)NS(=O)(=O)c4ccc(N[C@H](CCN5CCOCC5)CSc5ccccc5)c(S(=O)(=O)C(F)(F)F)c4)cc3)CC2)C1 [Navitoclax] (partner 0.5 µM)")
0.571
>>> val("Oc1nc(-c2ccc(C(F)(F)F)cc2)nc2c1CSCC2 [XAV939] + Nc1nc2[nH]cc(CCc3ccc(C(=O)N[C@@H](CCC(=O)O)C(=O)O)cc3)c2c(=O)[nH]1 [Pemetrexed] (partner 0.2 µM)")
0.243
>>> val("C=C1C(=O)O[C@@H](CCCCCCCC)[C@@H]1C(=O)O [C-75] + Cc1nc(NC(=O)N2CCC[C@H]2C(N)=O)sc1-c1ccnc(C(C)(C)C(F)(F)F)c1 [Alpelisib] (partner 2 µM)")
0.762

The molecule listed as C=C1C(=O)O[C@@H](CCCCCCCC)[C@@H]1C(=O)O [C-75] + O=C(CCCCCCC(=O)Nc1ccccc1)NO [Vorinostat] (partner 1 µM) has a reported relative viability of 0.82

The molecule listed as Oc1nc(-c2ccc(C(F)(F)F)cc2)nc2c1CSCC2 [XAV939] + C[C@]1(O)C[C@@H](c2nc(-c3ccc4ccc(-c5ccccc5)nc4c3)c3c(N)nccn32)C1 [Linsitinib] (partner 1 µM) has a reported relative viability of 0.675

----------
system: NCI-H727; experiment: relative viability (nuclei count vs DMSO), 5 days (fraction); higher = more cells survive; details: first compound 0.1 µM
Examples of compounds with documented relative viability follow.
Returns: the value as a bare number; no unit string appended.

>>> val("NC(=O)Nc1cc(-c2cccc(F)c2)sc1C(=O)N[C@H]1CCCNC1 [AZD7762] + Cc1nc(NC(=O)N2CCC[C@H]2C(N)=O)sc1-c1ccnc(C(C)(C)C(F)(F)F)c1 [Alpelisib] (partner 2 µM)")
0.471
>>> val("NC(=O)Nc1cc(-c2cccc(F)c2)sc1C(=O)N[C@H]1CCCNC1 [AZD7762] + O=C(c1cc(Cc2n[nH]c(=O)c3ccccc23)ccc1F)N1CCN(C(=O)C2CC2)CC1 [Olaparib] (partner 8 µM)")
0.931
>>> val("NC(=O)Nc1cc(-c2cccc(F)c2)sc1C(=O)N[C@H]1CCCNC1 [AZD7762] + CC(=O)Nc1cccc(-n2c(=O)n(C3CC3)c(=O)c3c(Nc4ccc(I)cc4F)n(C)c(=O)c(C)c32)c1 [Trametinib] (partner 0.02 µM)")
0.358

The compound listed as NC(=O)Nc1cc(-c2cccc(F)c2)sc1C(=O)N[C@H]1CCCNC1 [AZD7762] + C[C@]1(O)C[C@@H](c2nc(-c3ccc4ccc(-c5ccccc5)nc4c3)c3c(N)nccn32)C1 [Linsitinib] (partner 1 µM) has a reported relative viability of 0.311

----------
tested on: NCI-H1395; assay: relative viability (nuclei count vs DMSO), 5 days (fraction); higher = more cells survive; conditions: first compound 0.1 µM
OBSERVATION_TYPE: relative viability
Returns: the value as a bare number; no unit string appended.

Example compounds with recorded relative viability:
>>> val("NC(=O)Nc1cc(-c2cccc(F)c2)sc1C(=O)N[C@H]1CCCNC1 [AZD7762] + Cc1nc(Nc2ncc(C(=O)Nc3c(C)cccc3Cl)s2)cc(N2CCN(CCO)CC2)n1 [Dasatinib] (partner 0.075 µM)")
0.427
>>> val("NC(=O)Nc1cc(-c2cccc(F)c2)sc1C(=O)N[C@H]1CCCNC1 [AZD7762] + Nc1nc2[nH]cc(CCc3ccc(C(=O)N[C@@H](CCC(=O)O)C(=O)O)cc3)c2c(=O)[nH]1 [Pemetrexed] (partner 0.2 µM)")
0.641
>>> val("NC(=O)Nc1cc(-c2cccc(F)c2)sc1C(=O)N[C@H]1CCCNC1 [AZD7762] + Cc1cc(Nc2cc(N3CCN(C)CC3)nc(Sc3ccc(NC(=O)C4CC4)cc3)n2)n[nH]1 [Tozasertib] (partner 0.1 µM)")
0.742

The value of relative viability recorded for NC(=O)Nc1cc(-c2cccc(F)c2)sc1C(=O)N[C@H]1CCCNC1 [AZD7762] + C[C@]1(O)C[C@@H](c2nc(-c3ccc4ccc(-c5ccccc5)nc4c3)c3c(N)nccn32)C1 [Linsitinib] (partner 1 µM) when tested on NCI-H1395 reads 0.966

----------
system: UMC-11; test: relative viability (nuclei count vs DMSO), 5 days (fraction); higher = more cells survive; conditions: first compound 0.08 µM
OBSERVATION_TYPE: relative viability
Returns: the value as a bare number; no unit string appended.

Example compounds with recorded relative viability:
>>> val("C=C1C(=O)O[C@@H](CCCCCCCC)[C@@H]1C(=O)O [C-75] + CS(=O)(=O)CCNCc1ccc(-c2ccc3ncnc(Nc4ccc(OCc5cccc(F)c5)c(Cl)c4)c3c2)o1 [Lapatinib] (partner 2 µM)")
1.01
>>> val("Oc1nc(-c2ccc(C(F)(F)F)cc2)nc2c1CSCC2 [XAV939] + CC1(C)CCC(c2ccc(Cl)cc2)=C(CN2CCN(c3ccc(C(=O)NS(=O)(=O)c4ccc(N[C@H](CCN5CCOCC5)CSc5ccccc5)c(S(=O)(=O)C(F)(F)F)c4)cc3)CC2)C1 [Navitoclax] (partner 0.5 µM)")
0.318

With those in mind, consider the next compound.
The compound listed as C=C1C(=O)O[C@@H](CCCCCCCC)[C@@H]1C(=O)O [C-75] + CCNC(=O)c1noc(-c2cc(C(C)C)c(O)cc2O)c1-c1ccc(CN2CCOCC2)cc1 [Luminespib] (partner 0.01 µM) has a reported relative viability of 0.992

----------
Examples of compounds with documented relative viability follow.
system: NCI-H441; test: relative viability (nuclei count vs DMSO), 5 days (fraction); higher = more cells survive; conditions: first compound 0.05 µM

Example compounds with recorded relative viability:
>>> val("CC1(C)CCC(c2ccc(Cl)cc2)=C(CN2CCN(c3ccc(C(=O)NS(=O)(=O)c4ccc(N[C@H](CCN5CCOCC5)CSc5ccccc5)c(S(=O)(=O)C(F)(F)F)c4)cc3)CC2)C1 [Navitoclax] + NC(=O)Nc1cc(-c2cccc(F)c2)sc1C(=O)N[C@H]1CCCNC1 [AZD7762] (partner 0.2 µM)")
1.22
>>> val("CC1(C)CCC(c2ccc(Cl)cc2)=C(CN2CCN(c3ccc(C(=O)NS(=O)(=O)c4ccc(N[C@H](CCN5CCOCC5)CSc5ccccc5)c(S(=O)(=O)C(F)(F)F)c4)cc3)CC2)C1 [Navitoclax] + C[C@@H](Oc1cc(-c2cnn(C3CCNCC3)c2)cnc1N)c1c(Cl)ccc(F)c1Cl [Crizotinib] (partner 1 µM)")
0.734
>>> val("CC1(C)CCC(c2ccc(Cl)cc2)=C(CN2CCN(c3ccc(C(=O)NS(=O)(=O)c4ccc(N[C@H](CCN5CCOCC5)CSc5ccccc5)c(S(=O)(=O)C(F)(F)F)c4)cc3)CC2)C1 [Navitoclax] + CC(C)C[C@H](NC(=O)[C@H](Cc1ccccc1)NC(=O)c1cnccn1)B(O)O [Bortezomib] (partner 0.002 µM)")
0.379
>>> val("CC1(C)CCC(c2ccc(Cl)cc2)=C(CN2CCN(c3ccc(C(=O)NS(=O)(=O)c4ccc(N[C@H](CCN5CCOCC5)CSc5ccccc5)c(S(=O)(=O)C(F)(F)F)c4)cc3)CC2)C1 [Navitoclax] + COc1cc2c(Oc3ccc(NC(=O)C4(C(=O)Nc5ccc(F)cc5)CC4)cc3F)ccnc2cc1OCCCN1CCOCC1 [Foretinib] (partner 0.25 µM)")
1.05
>>> val("CC1(C)CCC(c2ccc(Cl)cc2)=C(CN2CCN(c3ccc(C(=O)NS(=O)(=O)c4ccc(N[C@H](CCN5CCOCC5)CSc5ccccc5)c(S(=O)(=O)C(F)(F)F)c4)cc3)CC2)C1 [Navitoclax] + Cc1cc(Nc2cc(N3CCN(C)CC3)nc(Sc3ccc(NC(=O)C4CC4)cc3)n2)n[nH]1 [Tozasertib] (partner 0.1 µM)")
0.719
>>> val("CC1(C)CCC(c2ccc(Cl)cc2)=C(CN2CCN(c3ccc(C(=O)NS(=O)(=O)c4ccc(N[C@H](CCN5CCOCC5)CSc5ccccc5)c(S(=O)(=O)C(F)(F)F)c4)cc3)CC2)C1 [Navitoclax] + COc1cccc2cc(-c3nc([C@H]4CC[C@H](C(=O)O)CC4)n4ncnc(N)c34)[nH]c12 [OSI-027] (partner 0.5 µM)")
0.58

With those in mind, consider the next compound.
The compound listed as CC1(C)CCC(c2ccc(Cl)cc2)=C(CN2CCN(c3ccc(C(=O)NS(=O)(=O)c4ccc(N[C@H](CCN5CCOCC5)CSc5ccccc5)c(S(=O)(=O)C(F)(F)F)c4)cc3)CC2)C1 [Navitoclax] + CS(=O)(=O)N1CCN(Cc2cc3nc(-c4cccc5[nH]ncc45)nc(N4CCOCC4)c3s2)CC1 [Pictilisib] (partner 1 µM) has a reported relative viability of 0.433
